Data provenance is patent US20200392228A1.

target_system: T1, mouse MAdCAM expressed on cells (mouse, UniProt Q61826 22-405)
T1 construct: whole, on cells
T1 sequence (looked up): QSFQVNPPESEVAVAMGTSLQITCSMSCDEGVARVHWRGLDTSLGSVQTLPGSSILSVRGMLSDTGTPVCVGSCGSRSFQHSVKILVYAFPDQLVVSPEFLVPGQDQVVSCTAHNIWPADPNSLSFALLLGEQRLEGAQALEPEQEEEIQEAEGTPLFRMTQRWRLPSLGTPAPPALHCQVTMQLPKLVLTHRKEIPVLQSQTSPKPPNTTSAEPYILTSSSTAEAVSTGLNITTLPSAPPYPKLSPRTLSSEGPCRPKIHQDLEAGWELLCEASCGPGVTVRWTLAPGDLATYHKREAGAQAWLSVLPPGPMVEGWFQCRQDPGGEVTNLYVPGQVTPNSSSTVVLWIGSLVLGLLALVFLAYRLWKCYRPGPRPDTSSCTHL
method_notes: cell binding
quantity_measured: binding result

1) MAdCAM antibody Clone ID 63 of Table 6 (scFv) (scFv) scFv: EVQLLESGGGLVKPGGSLRLSCAASGFTFDDYAMHWVRQAPGKGLEWVASITSSSAFIDYAASVKGRFTISRDDSKNTLYLQMNSLKTEDTAVYYCARERVDWNSYFDLWGRGTLVTVSSGGGGSGGGGSGGGGSGGGGSEIVMTQSPATLSVSPGERATLSCRASQGISNSYLAWYQQKPGQAPRLLIYGASTRATGIPARFSGSGSGTEFTLTISSLQSEDFAVYYCQQYYTYPPTFGPGTKVDIK :: binds
2) MAdCAM antibody Clone ID 9 of Table 6 (scFv) (scFv) scFv: EVQLLESGGGLVQPGGSLRLSCAASGFTFSDYYMNWVRQAPGKGLEWVSVIGESGGSTYYADSVKGRFTISRDNSKNTLYLQMNSLRAEDTAVYYCAADPVSRWPKHGGGDYWGQGTLVTVSSGGGGSGGGGSGGGGSGGGGSDIQMTQSPSSLSASVGDRVTITCRASQGISSSLAWYQQKPGKAPKLLIYAASTLQSGVPSRFSGSGSGTDFTLTISSLQPEDFATYYCQQSYSTPWTFGQGTKVEIK :: binds
